- Target Or System: Ribosomal protein S6 kinase alpha-3 (Homo sapiens) (UniProt P51812)
- Sequence (P51812 whole entry): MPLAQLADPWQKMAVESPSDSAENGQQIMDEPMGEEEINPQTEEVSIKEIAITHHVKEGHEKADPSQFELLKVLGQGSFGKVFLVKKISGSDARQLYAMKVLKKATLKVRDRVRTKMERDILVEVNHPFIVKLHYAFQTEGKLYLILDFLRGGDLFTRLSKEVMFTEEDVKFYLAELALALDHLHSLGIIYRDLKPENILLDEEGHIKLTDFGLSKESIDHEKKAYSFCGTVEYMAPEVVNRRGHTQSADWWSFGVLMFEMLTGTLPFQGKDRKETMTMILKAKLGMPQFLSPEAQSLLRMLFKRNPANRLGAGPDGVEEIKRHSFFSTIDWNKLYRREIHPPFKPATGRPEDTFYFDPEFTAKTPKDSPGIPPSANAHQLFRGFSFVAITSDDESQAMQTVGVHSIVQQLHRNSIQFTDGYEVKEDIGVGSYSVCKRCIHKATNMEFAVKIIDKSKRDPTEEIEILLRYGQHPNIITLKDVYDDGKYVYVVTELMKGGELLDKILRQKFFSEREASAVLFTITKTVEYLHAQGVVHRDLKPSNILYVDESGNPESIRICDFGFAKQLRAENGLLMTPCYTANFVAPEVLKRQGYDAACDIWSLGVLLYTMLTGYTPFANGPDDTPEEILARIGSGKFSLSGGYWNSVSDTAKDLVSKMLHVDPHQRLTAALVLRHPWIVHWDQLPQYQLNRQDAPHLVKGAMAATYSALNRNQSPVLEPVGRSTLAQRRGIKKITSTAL
- Experimental Context: at 1 µM
- Description: GSK_PKIS: RSK2 mean inhibition at 1 uM [Nanosyn]
Property Name: inhibition
Just the number plus its unit, please.

{"Given Smiles": "CCn1c(-c2nonc2N)nc2c(C#CC(C)(C)O)ncc(OC[C@@H]3CCCN3)c21", "inhibition": "24.9%"}

Next up:
Problem: Check the records and state inhibition for COc1cc2c(cc1Nc1nc(Nc3ccsc3C(N)=O)c3cc[nH]c3n1)N(C(=O)CN(C)C)CCC2
Result: -1.3%

###

Parameter inhibition: see the listing below.
- Target Or System: Cyclin-dependent kinase 2 (Homo sapiens);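 also: mean inhibition of CDK2 bound to cyclin A, from the GSK PKIS kinase inhibitor set screen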
- Experimental Context: at 0.1 µM
// return numeric value only (unit: %, not printed)

The following molecules have reported results that may help.
{"Given Smiles": "CCn1c(-c2nonc2N)nc2c(C#CCN)ncc(OCCCN)c21", "inhibition [%]": 0.26}
{"Given Smiles": "COc1cccc(COc2cc(-n3cnc4ccccc43)sc2C(N)=O)c1", "inhibition [%]": 0.15}

Problem: Check the records and state inhibition for Fc1ccc(-c2ncn(C3CCNCC3)c2-c2ccnc(Oc3ccccc3)n2)cc1
Result: -3.24

###

Parameter inhibition: see the listing below.
- Target Or System: Protein-tyrosine kinase 6 (Homo sapiens) (UniProt Q13882)
- Sequence (Q13882 whole entry, looked up): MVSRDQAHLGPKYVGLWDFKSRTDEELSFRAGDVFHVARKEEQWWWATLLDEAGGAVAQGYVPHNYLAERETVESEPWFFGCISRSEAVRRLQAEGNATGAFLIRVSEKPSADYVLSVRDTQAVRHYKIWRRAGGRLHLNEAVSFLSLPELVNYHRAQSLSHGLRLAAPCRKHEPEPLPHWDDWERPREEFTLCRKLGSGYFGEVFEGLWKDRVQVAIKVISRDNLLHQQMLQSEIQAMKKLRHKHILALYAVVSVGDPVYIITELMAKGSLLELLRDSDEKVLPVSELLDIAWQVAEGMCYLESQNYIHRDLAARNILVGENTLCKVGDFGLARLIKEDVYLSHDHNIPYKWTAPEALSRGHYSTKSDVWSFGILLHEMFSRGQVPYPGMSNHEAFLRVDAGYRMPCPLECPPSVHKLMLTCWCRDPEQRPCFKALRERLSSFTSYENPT
- Experimental Context: at 1 µM
- Description: GSK_PKIS: BRK mean inhibition at 1 uM [Nanosyn]
Just the number plus its unit, please.

{"Given Smiles": "COc1cc2c(cc1Nc1nc(Nc3ccsc3C(N)=O)c3cc[nH]c3n1)N(C(=O)CN(C)C)CCC2", "Reported Value": "3.39%"}
{"Given Smiles": "CCn1c(-c2nonc2N)nc2c(C#CC(C)(C)O)ncc(OC[C@@H]3CCCN3)c21", "Reported Value": "2.47%"}
{"Given Smiles": "NS(=O)(=O)c1ccc(N/C=C2\\C(=O)Nc3ccc4ncsc4c32)cc1", "Reported Value": "4.82%"}
{"Given Smiles": "COc1cccc(COc2cc(-n3cnc4ccccc43)sc2C(N)=O)c1", "Reported Value": "1.34%"}
{"Given Smiles": "COc1cc(C=NNc2ncnc3c2cnn3Cc2ccccc2)ccc1O", "Reported Value": "-0.85%"}

Problem: Check the records and state inhibition for Fc1ccc(-c2ncn(C3CCNCC3)c2-c2ccnc(Oc3ccccc3)n2)cc1
Result: 3.59%

Problem: Check the records and state inhibition for COc1cccc(-n2ncc3c(N/N=C/c4ccncc4)ncnc32)c1
Result: 23.1%

Problem: Check the records and state inhibition for CCn1c(-c2nonc2N)nc2c(C#CCN)ncc(OCCCN)c21
Result: -3.37%

Problem: Check the records and state inhibition for NS(=O)(=O)c1ccc(-c2ccc3c(NC(=O)C4CC4)n[nH]c3c2)cc1
Result: 1.67%

###

Parameter inhibition: see the listing below.
- Target Or System: Tyrosine-protein kinase TXK (Homo sapiens) (UniProt P42681);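 also: value given is the mean percent inhibition of TXK kinase activity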
- Sequence (P42681 whole entry): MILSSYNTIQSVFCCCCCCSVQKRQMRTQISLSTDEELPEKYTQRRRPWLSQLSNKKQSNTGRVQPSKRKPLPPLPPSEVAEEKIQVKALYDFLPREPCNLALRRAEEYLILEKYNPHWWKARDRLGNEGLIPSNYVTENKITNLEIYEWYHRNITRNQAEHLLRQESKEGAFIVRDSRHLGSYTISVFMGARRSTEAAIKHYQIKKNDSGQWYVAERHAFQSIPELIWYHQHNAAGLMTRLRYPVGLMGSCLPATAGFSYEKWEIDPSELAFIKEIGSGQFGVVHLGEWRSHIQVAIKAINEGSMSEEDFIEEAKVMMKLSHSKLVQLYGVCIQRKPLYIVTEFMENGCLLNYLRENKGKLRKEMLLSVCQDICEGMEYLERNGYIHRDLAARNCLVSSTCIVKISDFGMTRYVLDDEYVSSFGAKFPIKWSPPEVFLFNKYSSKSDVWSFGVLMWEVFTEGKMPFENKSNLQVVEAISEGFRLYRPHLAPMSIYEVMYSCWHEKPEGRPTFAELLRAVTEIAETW
- Experimental Context: at 1 µM
Just the number plus its unit, please.

The following molecules have reported results that may help.
{"Given Smiles": "CCn1c(-c2nonc2N)nc2c(C#CC(C)(C)O)nc(O[C@@H](CN)c3ccccc3)cc21", "inhibition": "2.31%"}
{"Given Smiles": "COc1cccc(-n2ncc3c(N/N=C/c4ccncc4)ncnc32)c1", "inhibition": "18.6%"}
{"Given Smiles": "CCn1c(-c2nonc2N)nc2c(C#CCN)ncc(OCCCN)c21", "inhibition": "-3.71%"}

Problem: Check the records and state inhibition for NS(=O)(=O)c1ccc(-c2ccc3c(NC(=O)C4CC4)n[nH]c3c2)cc1
Result: 4.88%

Problem: Check the records and state inhibition for CCn1c(-c2nonc2N)nc2c(C#CC(C)(C)O)ncc(OCC3CCNCC3)c21
Result: -1.53%

Problem: Check the records and state inhibition for Nc1nonc1-c1nc2cnccc2n1C1CCCCC1
Result: -0.03%

Problem: Check the records and state inhibition for Fc1ccc(-c2ncn(C3CCNCC3)c2-c2ccnc(Oc3ccccc3)n2)cc1
Result: -2.78%

Problem: Check the records and state inhibition for Cc1cc(-c2ccco2)cc(C)c1/C=C/c1cncc(-c2nn[nH]n2)c1
Result: 4.01%
